target: T1, human MSLN-R3-his protein (human, UniProt Q13421 487-598); assay: ELISA on coated antigen, antibody 0.002 nM
T1 construct: it is put last here; also called human MSLN-R3 protein; hMSLN-R3-his; not shown: His tag
T1 sequence (Q13421 495-606): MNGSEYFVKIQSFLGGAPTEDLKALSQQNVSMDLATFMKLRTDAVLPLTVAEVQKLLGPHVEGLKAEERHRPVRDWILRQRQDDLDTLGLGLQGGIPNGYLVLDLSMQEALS
value-type: OD450 (OD)
Numeric answer only, unit OD assumed.

// solved cases for OD450 follow
binder	readout-value
S009-F7.61.21 (antibody, human IgG1, kappa, V domains shown, Human-murine chimeric antibody, human IgG1 heavy and kappa light constant regions) VH: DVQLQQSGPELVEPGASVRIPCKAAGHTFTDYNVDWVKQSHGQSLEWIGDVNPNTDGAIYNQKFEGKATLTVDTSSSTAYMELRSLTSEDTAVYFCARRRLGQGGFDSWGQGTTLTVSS VL: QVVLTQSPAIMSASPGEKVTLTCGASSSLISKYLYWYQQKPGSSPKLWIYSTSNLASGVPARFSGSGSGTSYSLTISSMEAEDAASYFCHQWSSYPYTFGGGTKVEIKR	0.06
S009-F7.65.13 (antibody, human IgG1, kappa, V domains shown, Human-murine chimeric antibody, human IgG1 heavy and kappa light constant regions) VH: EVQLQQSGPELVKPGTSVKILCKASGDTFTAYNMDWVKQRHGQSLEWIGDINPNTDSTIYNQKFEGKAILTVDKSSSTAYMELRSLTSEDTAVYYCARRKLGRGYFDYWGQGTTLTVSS VL: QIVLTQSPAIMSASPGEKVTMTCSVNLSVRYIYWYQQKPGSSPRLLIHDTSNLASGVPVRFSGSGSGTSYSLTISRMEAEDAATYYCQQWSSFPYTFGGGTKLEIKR	0.14

Query block: Consider the binder shown here: S009-F7.12.13 (antibody, human IgG1, kappa, V domains shown, Human-murine chimeric antibody, human IgG1 heavy and kappa light constant regions) VH: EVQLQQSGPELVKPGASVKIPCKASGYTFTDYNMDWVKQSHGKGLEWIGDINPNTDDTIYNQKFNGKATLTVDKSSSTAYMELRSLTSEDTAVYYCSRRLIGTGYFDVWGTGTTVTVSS VL: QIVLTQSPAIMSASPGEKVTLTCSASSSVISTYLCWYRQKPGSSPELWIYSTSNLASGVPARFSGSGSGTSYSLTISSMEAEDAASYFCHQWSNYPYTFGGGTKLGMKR What is its recorded OD450?
Result block: 0.15
